- test: gradient 5% acetonitrile 3 min, to 50% in 2 min, to 85% in 15 min, held 3 min, 100 µL/min
- appliedConditions: column: Zorbax Extend-C18 2.1 x 50 mm; eluents: water / acetonitrile, 0.1% formic acid
observationType: RP-LC retention time (s)

1. O=C(c1cc2c(s1)CCCC2)N1CCc2[nH]cnc2C12CCCCC2 692
2. Cc1cc(C)n2nc(CN(C(=O)c3ccco3)c3ccc(F)cc3)nc2n1 715
3. CCN1CCn2cc(S(=O)(=O)NCc3ccc(C)cc3)cc2C1=O 716
4. O=C(CN1CC=C(c2cnn(-c3ccccc3)c2)CC1)NC1CCCCCC1 702

FYI, the data here is from the METLIN SMRT retention time set (Domingo-Almenara et al. 2019).
